test: Pharmacokinetic analyses (plasma, non-compartmental); format: in vivo, human (patients); conditions: human, plasma, oral, 150 mg, Erlotinib D14; DL3 erlotinib 150 mg daily alone; N=7; read-out: Cmax
parameter: Cmax (ng/mL)
Give the value, in units of ng/mL, as a plain number.

Prompt: Give a short answer stating reported Cmax for C#Cc1cccc(Nc2ncnc3cc(OCCOC)c(OCCOC)cc23)c1 [erlotinib] .
Response: 2240

---

assay: Pharmacokinetic analyses (plasma, non-compartmental); type: in vivo, human (patients); settings: human, plasma, oral, Erlotinib D28; DL3 erlotinib 150 mg + foretinib 45 mg daily; N=6; read-out: Cmax
parameter: Cmax (µg/mL)
Give the value, in units of µg/mL, as a plain number.

Prompt: Give a short answer stating reported Cmax for C#Cc1cccc(Nc2ncnc3cc(OCCOC)c(OCCOC)cc23)c1 .
Response: 2.47

---

assay: Pharmacokinetic analyses (plasma, non-compartmental); type: in vivo, human (patients); conditions: human, plasma, oral, Foretinib D28; DL1 foretinib 30 mg + erlotinib 100 mg daily; N=7
parameter: Tmax (h)
Give the value, in units of h, as a plain number.

Prompt: Give a short answer stating reported Tmax for COc1cc2c(Oc3ccc(NC(=O)C4(C(=O)Nc5ccc(F)cc5)CC4)cc3F)ccnc2cc1OCCCN1CCOCC1 .
Response: 3.14

---

assay: Pharmacokinetic analyses (plasma, non-compartmental); type: in vivo, human (patients); conditions: human, plasma, oral, Erlotinib D28; DL1 erlotinib 100 mg + foretinib 30 mg daily; N=7
parameter: AUC(0-t)
Express the reported value numerically, then name its unit.

Prompt: Give a short answer stating reported AUC(0-t) for C#Cc1cccc(Nc2ncnc3cc(OCCOC)c(OCCOC)cc23)c1 .
Response: 35900 ng·h/mL

---

assay: Pharmacokinetic analyses (plasma, non-compartmental); format: in vivo, human (patients); settings: human, plasma, oral, Erlotinib D28; DL2 erlotinib 150 mg + foretinib 30 mg daily; N=11
parameter: AUC(0-t) (ng·h/mL)
Give the value, in units of ng·h/mL, as a plain number.

Prompt: Give a short answer stating reported AUC(0-t) for C#Cc1cccc(Nc2ncnc3cc(OCCOC)c(OCCOC)cc23)c1 [erlotinib] .
Response: 36200

---

assay: Pharmacokinetic analyses (plasma, non-compartmental); format: in vivo, human (patients); details: human, plasma, oral, 150 mg, Erlotinib D14; DL2 erlotinib 150 mg daily alone; N=9
parameter: Tmax
Express the reported value numerically, then name its unit.

Prompt: Give a short answer stating reported Tmax for C#Cc1cccc(Nc2ncnc3cc(OCCOC)c(OCCOC)cc23)c1 .
Response: 2.22 h

---

experiment: Pharmacokinetic analyses (plasma, non-compartmental); assay type: in vivo, human (patients); details: human, plasma, oral, Foretinib D28; DL2 foretinib 30 mg + erlotinib 150 mg daily; N=11
parameter: Tmax (h)
Give the value, in units of h, as a plain number.

Prompt: Give a short answer stating reported Tmax for COc1cc2c(Oc3ccc(NC(=O)C4(C(=O)Nc5ccc(F)cc5)CC4)cc3F)ccnc2cc1OCCCN1CCOCC1 [foretinib] .
Response: 3.55

---

experiment: Pharmacokinetic analyses (plasma, non-compartmental); type: in vivo, human (patients); settings: human, plasma, oral, 150 mg, Erlotinib D14; DL3 erlotinib 150 mg daily alone; N=7
parameter: AUC(0-t) (ng·h/mL)
Give the value, in units of ng·h/mL, as a plain number.

Prompt: Give a short answer stating reported AUC(0-t) for C#Cc1cccc(Nc2ncnc3cc(OCCOC)c(OCCOC)cc23)c1 .
Response: 35500
